Target: DRB4*0101 (Homo sapiens, UniProt P01903+P13762, G164S)
Assay: biochemical
Metric name: pIC50
Give bare numbers, as −log10 of the molar value.

Please review the following examples before continuing.
Compound structure: CC(C)C[C@H](NC(=O)[C@H](CCCNC(=N)N)NC(=O)[C@H](Cc1c[nH]cn1)NC(=O)[C@H](CC(=O)O)NC(=O)[C@H](CS)NC(=O)[C@H](CC(C)C)NC(=O)[C@H](CCC(N)=O)NC(=O)[C@@H](NC(=O)[C@H](Cc1ccc(O)cc1)NC(=O)[C@@H](NC(=O)[C@H](CCC(=O)O)NC(=O)[C@H](CCCNC(=N)N)NC(=O)[C@H](CC(C)C)NC(=O)[C@H](CCCCN)NC(=O)[C@@H](N)CC(C)C)C(C)C)[C@@H](C)O)C(=O)O
Metric name: pIC50
Recorded measurement: 6.06
//
Compound structure: CC[C@H](C)[C@H](NC(=O)[C@H](CC(=O)O)NC(=O)[C@@H](N)CC(C)C)C(=O)N[C@@H](CCC(=O)O)C(=O)N[C@@H](CC(C)C)C(=O)N[C@@H](CCC(N)=O)C(=O)N[C@@H](CCCCN)C(=O)N[C@H](C(=O)N[C@@H](CCC(=O)O)C(=O)N[C@@H](C)C(=O)N[C@H](C(=O)N[C@@H](CCC(N)=O)C(=O)N[C@@H](CC(C)C)C(=O)N[C@@H](C)C(=O)N[C@H](C(=O)O)[C@@H](C)O)[C@@H](C)O)[C@@H](C)O
Metric name: pIC50
Recorded measurement: 8.19
//
Compound structure: CC[C@H](C)[C@H](NC(=O)[C@H](C)NC(=O)[C@H](CCC(=O)O)NC(=O)[C@H](CCCNC(=N)N)NC(=O)[C@@H](N)C(C)C)C(=O)N[C@@H](CCCCN)C(=O)N[C@@H](CCCNC(=N)N)C(=O)N[C@@H](CCCNC(=N)N)C(=O)N[C@@H](CC(C)C)C(=O)N[C@@H](CCCNC(=N)N)C(=O)N[C@H](C(=O)N[C@@H](CC(C)C)C(=O)N[C@H](C(=O)N[C@@H](CC(C)C)C(=O)N[C@@H](C)C(=O)O)[C@@H](C)CC)[C@@H](C)O
Metric name: pIC50
Recorded measurement: 8.29
//
Compound structure: CC(C)C[C@H](NC(=O)[C@H](CCCCN)NC(=O)[C@@H](NC(=O)[C@H](CCCCN)NC(=O)[C@H](CCC(N)=O)NC(=O)[C@H](Cc1ccc(O)cc1)NC(=O)[C@H](CCC(=O)O)NC(=O)[C@@H](NC(=O)[C@H](CC(=O)O)NC(=O)[C@H](Cc1ccccc1)NC(=O)[C@@H](NC(=O)[C@@H](N)CCCCN)[C@@H](C)O)[C@@H](C)O)[C@@H](C)O)C(=O)N[C@@H](CC(N)=O)C(=O)N[C@@H](CC(=O)O)C(=O)N[C@@H](Cc1c[nH]c2ccccc12)C(=O)O
Metric name: pIC50
Recorded measurement: 5.00

Please examine the following record next.
Query :: What measured pIC50 is associated with `CC(C)C[C@H](NC(=O)[C@H](CCC(=O)O)NC(=O)[C@H](CC(C)C)NC(=O)[C@H](CCCCN)NC(=O)CNC(=O)[C@H](CC(C)C)NC(=O)[C@H](Cc1c[nH]cn1)NC(=O)[C@H](Cc1c[nH]c2ccccc12)NC(=O)[C@@H]1CCCN1C(=O)CNC(=O)[C@H](C)NC(=O)[C@@H](NC(=O)[C@H](CCC(N)=O)NC(=O)[C@@H](NC(=O)[C@@H](N)Cc1c[nH]cn1)[C@@H](C)O)[C@@H](C)O)C(=O)O` on DRB4*0101 (Homo sapiens, UniProt P01903+P13762, G164S)?
Result :: 6.18

Just for reference, paper PMC3794980 is where these values come from.
